target of assay: human muscarinic M3 receptor (Homo sapiens, UniProt P20309)
Sequence (P20309 whole entry): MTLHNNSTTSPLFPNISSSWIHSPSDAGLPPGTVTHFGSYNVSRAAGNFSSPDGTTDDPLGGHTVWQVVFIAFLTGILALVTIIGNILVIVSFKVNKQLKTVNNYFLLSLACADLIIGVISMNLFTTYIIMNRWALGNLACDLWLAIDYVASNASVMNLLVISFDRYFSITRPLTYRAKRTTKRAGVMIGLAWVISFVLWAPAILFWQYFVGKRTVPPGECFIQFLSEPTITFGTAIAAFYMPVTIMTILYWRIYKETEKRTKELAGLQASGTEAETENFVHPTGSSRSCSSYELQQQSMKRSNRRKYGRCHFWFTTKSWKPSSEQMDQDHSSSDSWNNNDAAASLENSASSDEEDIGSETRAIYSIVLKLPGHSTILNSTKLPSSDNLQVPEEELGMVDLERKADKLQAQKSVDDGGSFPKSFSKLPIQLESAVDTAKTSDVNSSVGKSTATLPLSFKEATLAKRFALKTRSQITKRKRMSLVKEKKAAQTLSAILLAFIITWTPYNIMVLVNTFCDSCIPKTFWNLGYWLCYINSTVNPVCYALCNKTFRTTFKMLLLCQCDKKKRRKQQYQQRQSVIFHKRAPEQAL
protocol details: Alphascreen Surefire phospho-ERK1/2 functional assay, M3
Each entry below lists one item and its recorded EC50 value.

[
  {
    "molecule": "CCOC(=O)N1CCC2(CC(N3CCC4(CC3)OC(=O)NC4CC)C2)C1 (single isomer, unassigned) [4-12 Isomer 1]",
    "EC50": "> 20 µM"
  },
  {
    "molecule": "CCOC(=O)N1CCC2(CC(N3CCC4(CC3)CNC(=O)O4)C2)C1 (single isomer, unassigned) [4-3 Isomer 2]",
    "EC50": "> 20 µM"
  },
  {
    "molecule": "CCOC(=O)N1CC2(CCC(N3CCC4(CC3)OC(=O)NC4(C)C)C2)C1 (single isomer, unassigned) [8-3 Isomer 2]",
    "EC50": "> 20 µM"
  },
  {
    "molecule": "CCOC(=O)N1CCC2(CC(N3CCC4(CC3)OC(=O)NC4C)C2)C1 (single isomer, unassigned) [4-11 Isomer 2]",
    "EC50": "> 20 µM"
  },
  {
    "molecule": "CCCN1C(=O)OC2(CCN(C3CC4(CCN(C(=O)OCC)C4)C3)CC2)C1CC (single isomer, unassigned) [4-23 Isomer 3]",
    "EC50": "> 20 µM"
  },
  {
    "molecule": "COC(=O)N1CCC2(CC(N3CCC4(CC3)CNC(=O)O4)C2)C1 (single isomer, unassigned) [4-1 Isomer 2]",
    "EC50": "> 20 µM"
  },
  {
    "molecule": "CCOC(=O)N1CCC2(CC(N3CCC4(CC3)CC(=O)NC4CC)C2)C1 (single isomer, unassigned) [3-5 Isomer 2]",
    "EC50": "> 20 µM"
  }
]
